- TEST_NAME: qHTS of pediatric cancer cell lines to identify multiple opportunities for drug repurposing: Primary screen for SK-N-SH cells (AID 1347098); also: nearly all actives have a fitted effect of over 65% in size
- CONDITION_SET: SK-N-SH viability, CellTiter-Glo luminescence, 48 h; series mostly up to 57 µM
Inconclusive results are not listed. Calls of active or inactive are those of the source. Calls follow the shape of the dose curve; as a rule, active = well fitted cell-killing curve with a large enough effect; inconclusive = small, poorly fitted or top-dose-only effect; inactive = no such curve, though single readings can be large or run the other way.
API: response.call in TRUE = active, FALSE = inactive

Qu. Which result was noted for this molecule in the test: CCOc1ccc(Nc2nc(-c3c(C)nc4ccccn34)cs2)cc1
Ans. FALSE

Qu. Which result was noted for this molecule in the test: CC(C)n1cnc2c(NCCCCCCNC(=O)OC(C)(C)C)nc(NCCO)nc21
Ans. FALSE

Qu. Which result was noted for this molecule in the test: COC[C@@H](c1ccc(C(F)(F)F)cc1)N1CCN(C2(C)CCN(C(=O)c3c(C)ncnc3C)CC2)C[C@H]1C
Ans. TRUE

Qu. Which result was noted for this molecule in the test: CO[C@H]1C[C@@H]2CC[C@@H](C)[C@@](O)(O2)C(=O)C(=O)N2CCCC[C@@H]2C(=O)O[C@H]([C@H](C)C[C@@H]2CC[C@H](OP(C)(C)=O)[C@H](OC)C2)CC(=O)[C@H](C)C=C(C)[C@@H](O)[C@@H](OC)C(=O)[C@H](C)C[C@H](C)C=CC=CC=C1C
Ans. FALSE

* * *

- TEST_NAME: qHTS of pediatric cancer cell lines to identify multiple opportunities for drug repurposing: Primary screen for Rh41 cells (AID 1347108); also: nearly all actives have a fitted effect of over 70% in size; also: potency is read from the fitted curve at half-maximal effect
- CONDITION_SET: Rh41 rhabdomyosarcoma viability, CellTiter-Glo luminescence, 48 h; series mostly up to 46 µM
Records with an inconclusive call do not appear. Calls of active or inactive are those of the source. Calls come from the whole dose curve; as a rule, active = well fitted cell-killing curve with a large enough effect; inconclusive = small, poorly fitted or top-dose-only effect; inactive = no such curve, though single readings can be large or run the other way.
OBSERVATION_TYPE: Potency

Look over these answered cases.
Cn1c(N2CCCCS2(=O)=O)nc(C(=O)NCc2ccc(F)cc2)c(O)c1=O ... inactive
Nc1ncnc2c1ncn2[C@@H]1O[C@@H](CO)[C@H](O)[C@H]1O ... inactive
C[C@]12CC[C@@H]3c4ccc(O)cc4CC[C@H]3[C@H]1C[C@@H](O)[C@H]2O ... inactive
CCn1cc(C(=O)O)c(=O)c2ccc(C)nc21 ... inactive
Clc1ccc(C(c2ccc(Cl)cc2)n2cc[n+](CC(OCc3ccc(Cl)cc3Cl)c3ccc(Cl)cc3Cl)c2)cc1 (stereo not given) ... 18.7 µM (active)

// O=C(NCc1ccccc1)c1csc(Nc2ccncn2)n1 : Potency value = 9.35 µM (active)

// COc1ccc(-c2coc3cc(O)cc(O)c3c2=O)cc1 : Potency value = inactive

// CCOc1ccc(Nc2nc(-c3c(C)nc4ccccn34)cs2)cc1 : Potency value = inactive

// CC1=C(/C=C/C(C)=C/C=C/C(C)=C/C(=O)Nc2ccc(O)cc2)C(C)(C)CCC1 : Potency value = 9.44 µM (active)

// CCN(CC)CCOC(=O)c1ccc(N)cc1 : Potency value = inactive

* * *

- TEST_NAME: Quantitative High-Throughput drug screen in 47 multiple myeloma cell lines against the NCATS MIPE library collection: KMS27_JCRB cell viability assay (AID 1918970); also: nearly all actives have a fitted effect of over 30% in size
- CONDITION_SET: KMS27 myeloma cells, CellTiter-Glo ATP viability, 48 h; series mostly up to 45.8 µM
Inconclusive results are not listed. Active and inactive are the calls of the source. The call rests on the fitted dose curve; in most records, active means well fitted cell-killing curve with a large enough effect; inconclusive means small, poorly fitted or top-dose-only effect, or effect the other way; inactive means no such curve, though single readings can be large or run the other way.
API: response.call in Y for active, N for inactive

COc1ccc(-c2oc3c(CC=C(C)C)c(OC4O[C@H](CO)[C@@H](O)[C@H](O)[C@@H]4O)cc(O)c3c(=O)c2OC2O[C@@H](C)[C@H](O)[C@@H](O)[C@@H]2O)cc1 (stereo partly drawn) ... Y
O=C1C(Cl)=C(NCCN2CCOCC2)C(=O)c2ncccc21 ... Y
COC1CCC(N(C(=O)C2CCC(C)CC2)c2cc(C3=CCCCC3)sc2C(=O)O)CC1 (stereo not drawn) ... N
NS(=O)(=O)c1cccc2c1C(=O)c1cccc(O)c1C2=O ... Y
CCC(=O)O[C@]1(C(=O)CO)CC[C@H]2[C@@H]3CCC4=CC(=O)CC[C@]4(C)[C@@H]3CC[C@@]21C ... N
O=c1cc(N2CCOCC2)oc2c(-c3cccc4c3sc3ccccc34)cccc12 ... Y

Qu. Which result was noted for this compound in the test: CC1(C)S[C@H]2[C@H](NC(=O)[C@@H](N)c3ccc(O)cc3)C(=O)N2[C@@H]1C(=O)O
Ans. Y

Qu. Which result was noted for this compound in the test: CNC1CCC(N(Cc2cccc(-c3ccncc3)c2)C(=O)c2sc3c(F)ccc(F)c3c2Cl)CC1 (stereo not drawn)
Ans. Y

* * *

- TEST_NAME: Quantitative High-Throughput drug screen in 47 multiple myeloma cell lines against the NCATS MIPE library collection: KMS12PE_JCRB cell viability assay (AID 1918972); also: nearly all actives have a fitted effect of over 30% in size;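 as to viability: 100% = DMSO only wells and 0% = wells with media alone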
- CONDITION_SET: KMS12PE myeloma viability, CellTiter-Glo ATP, 48 h; series mostly up to 45.8 µM
Inconclusive results are not listed. The source made the active and inactive calls. Calls come from the whole dose curve; as a rule, active = well fitted cell-killing curve with a large enough effect; inconclusive = small, poorly fitted or top-dose-only effect, or effect the other way; inactive = no such curve, though single readings can be large or run the other way.
API: response.call in active, inactive

Example entries and their recorded answers appear below.
C[C@H](NC(=O)C(=O)Nc1ccccc1C(C)(C)C)C(=O)N[C@@H](CC(=O)O)C(=O)COc1c(F)c(F)cc(F)c1F ... active
CC[C@@H]1C=C(C)C[C@H](C)C[C@H](OC)[C@H]2O[C@@](O)(C(=O)C(=O)N3CCCC[C@@H]3C(=O)O[C@H](C(C)=C[C@@H]3CC[C@H](Cl)[C@H](OC)C3)[C@H](C)[C@@H](O)CC1=O)[C@H](C)C[C@H]2OC ... active

Attention now turns to another entry.
Qu. Which result was noted for this compound in the test: C[N+]1(C)[C@@H]2CC(OC(=O)[C@H](CO)c3ccccc3)C[C@H]1[C@H]1O[C@@H]12 (stereo partly drawn)
Ans. inactive

* * *

- TEST_NAME: Quantitative High-Throughput drug screen in 47 multiple myeloma cell lines against the NCATS MIPE library collection: ARP1_JJKsccF8 cell viability assay (AID 1918928; also: nearly all actives have a fitted effect of over 40% in size; also: potency is read from the fitted curve at half-maximal effect;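 as to viability: 100% = DMSO only wells and 0% = medium only wells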)
- CONDITION_SET: ARP1 myeloma cells viability, CellTiter-Glo ATP, 48 h; series mostly up to 45.8 µM
Results filed as inconclusive are left out. Activity calls are given as the source filed them. Calls come from the whole dose curve; as a rule, active = well fitted cell-killing curve with a large enough effect; inconclusive = small, poorly fitted or top-dose-only effect, or effect the other way; inactive = no such curve, though single readings can be large or run the other way.
OBSERVATION_TYPE: Potency

Look over these answered cases.
N[C@H](CSC(c1ccccc1)(c1ccccc1)c1ccccc1)C(=O)O ... 13.2 µM (active)
O=c1cc(-c2ccc(O)cc2)oc2cc(O)cc(O)c12 ... 20.9 µM (active)
Nc1ncnc2c1ncn2[C@@H]1O[C@H](CO)C[C@@H]1O ... inactive
O=C1C[C@@H](c2ccc(O)cc2)Oc2cc(O)cc(O)c21 ... inactive
O=C(NCc1ccccc1)c1csc(Nc2ccncn2)n1 ... 23.5 µM (active)

// O=C(O)c1cc(O)c2c(c1)C(=O)c1cccc(O)c1C2=O : Potency value = 34 µM (active)

// O=c1c(-c2ccc(O)cc2)coc2cc(O[C@@H]3O[C@H](CO)[C@H](O)[C@H](O)[C@H]3O)ccc12 : Potency value = 3.72 µM (active)

// CC(=O)O[C@]1(C(C)=O)CC[C@@H]2[C@@H]3C[C@H](C)C4=CC(=O)CC[C@]4(C)[C@H]3CC[C@@]21C : Potency value = 26.4 µM (active)

// CN(C)c1cc(NC(=O)CNC(C)(C)C)c(O)c2c1C[C@@H]1C[C@H]3[C@H](N(C)C)C(=O)C(C(N)=O)=C(O)[C@@]3(O)C(=O)C1=C2O : Potency value = inactive

* * *

- TEST_NAME: qHTS of pediatric cancer cell lines to identify multiple opportunities for drug repurposing: Primary screen for BT-12 cells (AID 1347101); also: nearly all actives have a fitted effect of over 25% in size
- CONDITION_SET: BT-12 viability, CellTiter-Glo luminescence, 48 h; series mostly up to 57.3 µM
Records with an inconclusive call do not appear. Activity calls are given as the source filed them. Calls come from the whole dose curve; as a rule, active = well fitted cell-killing curve with a large enough effect; inconclusive = small, poorly fitted or top-dose-only effect; inactive = flat fitted curve, though single readings scatter.
API: response.call in 1.0 for active, 0.0 for inactive

Example entries and their recorded answers appear below.
O=C(O)c1cc(-c2ccccc2)nc2ccccc12 ... 0.0
CN(C)CCC(c1ccccc1)c1ccccn1 (stereo unspecified) ... 0.0
CCNc1cc(NC2CCC(O)CC2)nc(Nc2ccc3c(ccn3Cc3ccccc3)c2)n1 (stereo unspecified) ... 1.0
CC(=NNC(=S)N1CCC1)c1ccccn1 ... 1.0
O=C(O)c1ccc(-c2c[nH]c3ncc(-c4ccccc4)cc23)cc1C1CCCC1 ... 0.0
CCN1CCC[C@H]1CNC(=O)c1cc(S(N)(=O)=O)ccc1OC ... 0.0
OC[C@H]1O[C@@H](Oc2cc(O)cc(C=Cc3ccc(O)cc3)c2)[C@H](O)[C@@H](O)[C@H]1O ... 0.0
O=C(O)c1cc(O)c2c(c1)C(=O)c1cccc(O)c1C2=O ... 0.0

Qu. Which result was noted for this compound in the test: CS(=O)c1ccc(-c2nc(-c3ccc(F)cc3)c(-c3ccncc3)[nH]2)cc1 (stereo unspecified)
Ans. 1.0

Qu. Which result was noted for this compound in the test: CO[C@H]1C=CC=C(C)C(=O)NC2=CC(=O)C(NCCN(C)C)=C(C[C@@H](C)C[C@H](OC)[C@@H](O)[C@@H](C)C=C(C)[C@@H]1OC(N)=O)C2=O
Ans. 1.0

Qu. Which result was noted for this compound in the test: CC(C)C(C)C=CC(C)C1CCC2C3=CC=C4CC(O)CCC4(C)C3CCC21C (stereo unspecified)
Ans. 0.0

Qu. Which result was noted for this compound in the test: COc1ccc(C2Sc3ccccc3N(CCN(C)C)C(=O)C2OC(C)=O)cc1 (stereo unspecified)
Ans. 0.0

Qu. Which result was noted for this compound in the test: Nc1ncnc2c1ncn2[C@@H]1O[C@H](CO)C[C@@H]1O
Ans. 0.0

Qu. Which result was noted for this compound in the test: O=c1cc(-c2cccc3c2Sc2ccccc2S3)oc(N2CCOCC2)c1
Ans. 0.0

Qu. Which result was noted for this compound in the test: C[N+](C)(C)CC(=O)O
Ans. 0.0

Qu. Which result was noted for this compound in the test: CC(C)(C)OC(=O)N[C@H]1CCCCCC=C[C@@H]2C[C@@]2(C(=O)NS(=O)(=O)C2CC2)NC(=O)[C@@H]2C[C@@H](OC(=O)N3Cc4cccc(F)c4C3)CN2C1=O
Ans. 0.0

Qu. Which result was noted for this compound in the test: CC1(C)CCC2=C(O1)c1ccccc1C(=O)C2=O
Ans. 1.0

Qu. Which result was noted for this compound in the test: Nc1ncnc2c1ncn2[C@@H]1O[C@@H](CO)[C@H](O)[C@H]1O
Ans. 0.0

Qu. Which result was noted for this compound in the test: O=c1ccn([C@@H]2O[C@H](CO)[C@H](O)[C@H]2O)c(=O)[nH]1
Ans. 0.0

Qu. Which result was noted for this compound in the test: COc1cc(NC(=O)c2ccc(-c3ccc(Cl)cc3)o2)cc(OC)c1
Ans. 0.0

Qu. Which result was noted for this compound in the test: C[C@@H]1CCN(C(=O)CC#N)C[C@H]1N(C)c1ncnc2[nH]ccc12
Ans. 0.0

Source of measurements: PubChem BioAssay (NCATS)
